Experiment: chemical genetic growth profiling, strain panel (AID 1159580);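 further: tested at 20 µM; growth read once vehicle control cultures reached saturation at 30 °C; 1 = growth at the plate median or of vehicle wells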
Settings: S. cerevisiae deletion strains, growth OD, locus YBL061C, strain skt5
The campaign covered roughly 5,500 compounds. About 2,000 (36%) were called active. Not shown: some 18% with an inconclusive outcome. No stated cut-off is given here; in the data, active means normalized growth mostly below about 0.91 (no sharp cut-off); inconclusive means no clear call, values can overlap the other calls; inactive means mostly above about 0.92. This is one part of the list.
Would you mind answering with one of these outcomes? true (active), false (inactive)

(Q) In this assay, the call recorded for O=c1c(-c2ccc3c(c2)OCO3)coc2cc(O)ccc12 was what?
(A) false

(Q) In this assay, the call recorded for CC(C)=CCc1c(O)cc2occ(-c3ccc4c(c3)OCO4)c(=O)c2c1O was what?
(A) true

(Q) In this assay, the call recorded for O=c1ccc2cc(O[C@@H]3O[C@H](CO)[C@@H](O)[C@H](O)[C@H]3O)c(O)cc2o1 was what?
(A) false

(Q) In this assay, the call recorded for CC(C)=CCC/C(C)=C/COc1ccc2ccc(=O)oc2c1 was what?
(A) false

(Q) In this assay, the call recorded for COc1cc2ccc(=O)oc2c(OC)c1OC was what?
(A) false

(Q) In this assay, the call recorded for CCOc1nc2cccc(C(=O)OC(C)OC(=O)OC3CCCCC3)c2n1Cc1ccc(-c2ccccc2-c2nn[nH]n2)cc1 (configuration not stated) was what?
(A) false

(Q) In this assay, the call recorded for COc1c2occc2cc2ccc(=O)oc12 was what?
(A) false

(Q) In this assay, the call recorded for CCS(=O)(=O)CCn1c([N+](=O)[O-])cnc1C was what?
(A) false

(Q) In this assay, the call recorded for CCCc1nc(C(C)(C)O)c(C(=O)OCc2oc(=O)oc2C)n1Cc1ccc(-c2ccccc2-c2nn[nH]n2)cc1 was what?
(A) false

(Q) In this assay, the call recorded for COc1c2c(cc3occ(-c4ccc5c(c4)OCO5)c(=O)c13)OC(C)(C)C=C2 was what?
(A) false

(Q) In this assay, the call recorded for COc1cc(O)c(C(=O)O)c(O)c1 was what?
(A) false

(Q) In this assay, the call recorded for CC1=C2CCC3C(CC[C@]4(C)C(=O)CCC34)[C@@]2(C)CCC1=O (some centres not stated) was what?
(A) false

###

Assay: chemical genetic growth profiling, strain panel (AID 1159580);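 further: tested at 20 µM; growth read once vehicle control cultures reached saturation at 30 °C; 1 = growth at the plate median or of vehicle wells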
Conditions: S. cerevisiae deletion strains, growth OD, locus YER155C, strain BEM2 (second series)
The campaign covered roughly 5,500 compounds. About 2,000 (36%) were called active. About 18% were inconclusive and are not listed. No stated cut-off is given here; in the data, active means normalized growth mostly below about 0.91 (no sharp cut-off); inconclusive means no clear call, values can overlap the other calls; inactive means mostly above about 0.92. The list shows a part of the results.
Would you mind answering with one of these outcomes? TRUE for active, FALSE for inactive

(Q) In this assay, the call recorded for O=c1cc(-c2ccc(O)cc2)oc2cc(O[C@@H]3O[C@H](CO)[C@@H](O)[C@H](O)[C@H]3O[C@@H]3OC[C@](O)(CO)[C@H]3O)cc(O)c12 was what?
(A) FALSE

(Q) In this assay, the call recorded for C[C@]12CCC3C(CC[C@H]4C[C@@H](O)CC[C@]34C)C1CCC2=O (stereo partly specified) was what?
(A) FALSE

(Q) In this assay, the call recorded for O=C(CCCN1CC=C(n2c(=O)[nH]c3ccccc32)CC1)c1ccc(F)cc1 was what?
(A) FALSE

(Q) In this assay, the call recorded for c1ccc2c(c1)[nH]c1cnccc12 was what?
(A) FALSE

(Q) In this assay, the call recorded for COc1ccc2c(c1)[nH]c1c(C)nccc12 was what?
(A) FALSE

(Q) In this assay, the call recorded for Cc1nccc2c1[nH]c1ccccc12 was what?
(A) FALSE

(Q) In this assay, the call recorded for C[N+]1(C)C2CC[C@H]1CC(OC(=O)C(O)c1ccccc1)C2 (stereo partly specified) was what?
(A) FALSE

(Q) In this assay, the call recorded for c1coc(CNc2ncnc3nc[nH]c23)c1 was what?
(A) FALSE

(Q) In this assay, the call recorded for Nc1ncnc2nc[nH]c12 was what?
(A) FALSE

(Q) In this assay, the call recorded for C[C@]12CCC3c4ccc(O)cc4CCC3C1CC[C@@H]2OC(=O)CCC1CCCC1 (stereo partly specified) was what?
(A) FALSE

(Q) In this assay, the call recorded for COc1ccc2c(=O)c(CC(=O)O)coc2c1 was what?
(A) FALSE

(Q) In this assay, the call recorded for O=c1[nH]c2ccccc2n1CCCN1CCC(n2c(=O)[nH]c3cc(Cl)ccc32)CC1 was what?
(A) TRUE

(Q) In this assay, the call recorded for O=c1[nH]cnc2nc[nH]c12 was what?
(A) FALSE

(Q) In this assay, the call recorded for CC(=O)OC1CCC2C3CCc4cc(O)ccc4C3CCC12C (stereo unspecified) was what?
(A) FALSE

(Q) In this assay, the call recorded for Cc1ncc([N+](=O)[O-])n1CCO was what?
(A) FALSE

(Q) In this assay, the call recorded for COc1ccc2[nH]cc(CCNC(C)=O)c2c1 was what?
(A) FALSE

(Q) In this assay, the call recorded for CC(=O)O[C@H]1CC2CCC3C(CC[C@@]4(C)C3C[C@H]([N+]3(C)CCCCC3)[C@@H]4OC(C)=O)[C@@]2(C)C[C@@H]1[N+]1(C)CCCCC1 (stereo partly specified) was what?
(A) FALSE

(Q) In this assay, the call recorded for CC(=O)N[C@@H](CC(=O)O)C(=O)O was what?
(A) FALSE

(Q) In this assay, the call recorded for CCOc1ccc(Cc2nccc3cc(OCC)c(OCC)cc23)cc1OCC was what?
(A) FALSE

(Q) In this assay, the call recorded for CCCCCN=C(N)N/N=C\c1c[nH]c2ccc(OC)cc12 was what?
(A) FALSE

(Q) In this assay, the call recorded for Cc1cccc(N(C)C(=S)Oc2ccc3ccccc3c2)c1 was what?
(A) FALSE

###

Assay: chemical genetic growth profiling, strain panel (AID 1159580);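 further: tested at 20 µM; growth read once vehicle control cultures reached saturation at 30 °C; 1 = growth at the plate median or of vehicle wells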
Conditions: S. cerevisiae deletion strains, growth OD, locus YGR229C, strain SMI1, stronger effect = lower value
About 2,000 (36%) of roughly 5,500 compounds were called active. Not shown: some 18% with an inconclusive outcome. Some of the results follow.
QUANTITY: normalized growth

(Q) Look up normalized growth for this compound: O=C1CCC(=O)N1CNc1ccccc1OC(F)(F)F
(A) 0.998 (inactive)

(Q) Look up normalized growth for this compound: O=C1OC(=O)C2C3CCC(O3)C12 (stereo unspecified)
(A) 1.02 (inactive)

(Q) Look up normalized growth for this compound: CC(NC(=S)Nc1ccc(Oc2ccc(Cl)cc2)cc1)c1ccccc1 (stereo unspecified)
(A) 0.975 (inactive)

(Q) Look up normalized growth for this compound: COC(=O)c1ccccc1-n1cccc1C(=O)OC
(A) 1.02 (inactive)

(Q) Look up normalized growth for this compound: CCOC(=O)c1csc(N/N=C2/CCCc3ccccc32)n1
(A) 0.986 (inactive)

(Q) Look up normalized growth for this compound: CC(C(=O)O)c1ccc(CC2CCCC2=O)cc1 (stereo unspecified)
(A) 1.01 (inactive)

(Q) Look up normalized growth for this compound: Cn1c(=O)[nH]c(=O)c2[nH]cnc21
(A) 0.993 (inactive)

(Q) Look up normalized growth for this compound: Cc1ncc([N+](=O)[O-])n1CCO
(A) 0.998 (inactive)

(Q) Look up normalized growth for this compound: NC(=S)Nc1cc(Cl)ccc1Cl
(A) 1 (inactive)

(Q) Look up normalized growth for this compound: CCC(=O)Oc1ccc(NC(=S)NCCCO)cc1
(A) 1 (inactive)

(Q) Look up normalized growth for this compound: COc1ccc2[nH]c(I)c(CCNC(C)=O)c2c1
(A) 0.998 (inactive)

(Q) Look up normalized growth for this compound: COc1ccc2[nH]cc(CCNC(C)=O)c2c1
(A) 1.01 (inactive)

(Q) Look up normalized growth for this compound: NCCS
(A) 1.01 (inactive)

(Q) Look up normalized growth for this compound: Cc1ccc(S(=O)(=O)/C(C#N)=N\O)cc1
(A) 0.988 (inactive)

(Q) Look up normalized growth for this compound: COc1cc(OC)cc(OC)c1
(A) 1 (inactive)

(Q) Look up normalized growth for this compound: NNC(=S)Nc1cc(C(F)(F)F)ccc1Cl
(A) 0.997 (inactive)

(Q) Look up normalized growth for this compound: Cc1cc(N=CNO)c2ccccc2n1
(A) 1.01 (inactive)

(Q) Look up normalized growth for this compound: CCN(CC)CCNC(=O)COc1ccc(OC)cc1
(A) 1.01 (inactive)

(Q) Look up normalized growth for this compound: COc1ccccc1N=C1SCC(=O)N1Cc1ccco1
(A) 1 (inactive)

(Q) Look up normalized growth for this compound: COc1cc(O)c(C(=O)O)c(O)c1
(A) 1.02 (inactive)

(Q) Look up normalized growth for this compound: O=C(O)CC[C@@H](C(=O)O)N1C(=O)c2ccccc2C1=O
(A) 1 (inactive)

###

Assay: chemical genetic growth profiling, strain panel (AID 1159580);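 further: tested at 20 µM; growth read once vehicle control cultures reached saturation at 30 °C; 1 = growth at the plate median or of vehicle wells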
Settings: S. cerevisiae deletion strains, growth OD, locus YCL061C, strain MRC1, stronger effect = lower value
The whole screen tested about 5,500 compounds, of which about 2,000 (36%) were called active. Roughly 18% stayed inconclusive and do not appear here. Some of the results follow.
What normalized growth was measured for each of the following?
Number, no unit, nothing else.

(Q) Look up normalized growth for this compound: COc1cc(OC)c2c(=O)c(-c3ccc4c(c3)OCO4)coc2c1
(A) 0.996

(Q) Look up normalized growth for this compound: CCCC(=O)Nc1ncnc2c1ncn2C1O[C@@H]2COP(=O)(O)O[C@H]2[C@H]1OC(=O)CCC (stereo partly specified)
(A) 0.977

(Q) Look up normalized growth for this compound: COc1c2c(cc3occ(-c4ccc5c(c4)OCO5)c(=O)c13)OC(C)(C)C=C2
(A) 0.996

(Q) Look up normalized growth for this compound: Cc1ccc(S(=O)(=O)/C(C#N)=N\O)cc1
(A) 1.01

(Q) Look up normalized growth for this compound: O=c1nc(-c2ccccc2)nc(-c2ccccc2)[nH]1
(A) 0.999

(Q) Look up normalized growth for this compound: CC(=O)OC1CCC23C(=O)OC45CCC(C6=CC(=O)OC6)C4(C)CCC2C5CCC3(O)C1 (stereo unspecified)
(A) 0.997

(Q) Look up normalized growth for this compound: Cc1c(N(C)CS(=O)(=O)O)c(=O)n(-c2ccccc2)n1C
(A) 1.01

(Q) Look up normalized growth for this compound: Cn1nnnc1SCC1=C(C(=O)O)N2C(=O)C(NC(=O)C(OC=O)c3ccccc3)C2SC1 (stereo unspecified)
(A) 0.991

(Q) Look up normalized growth for this compound: c1ccc2c(c1)-c1cccc3cccc-2c13
(A) 0.876

(Q) Look up normalized growth for this compound: CC(C(=O)O)c1ccc(N2Cc3ccccc3C2=O)cc1 (stereo unspecified)
(A) 0.986

(Q) Look up normalized growth for this compound: CC(=O)OC1CCC2C3CCc4cc(O)ccc4C3CCC12C (stereo unspecified)
(A) 0.984
